system: Staph. aureus (Pen-Res) A-9606; test: MIC, tube dilution, Staphylococcus aureus A9606 (Pen-Res); format: cell-based; settings: Staphylococcus aureus, Staph. aureus A9606 (Pen-Res); overnight 37° C.; read-out: Minimum Inhibitory Concentration (M.I.C.)
Please respond with reported MIC for every item in the list.
The reply should be a number in µg/mL, with the unit left off.

Assay Staph. aureus (Pen-Res) A-9606, sample NCc1ccc(CC2=C(C(=O)O)N3C(=O)CC3S2)cc1 (centres unmarked) , MIC read: 16

Assay Staph. aureus (Pen-Res) A-9606, sample Cn1cc(C2=C(C(=O)O)N3C(=O)CC3S2)cn1 (centres unmarked) , MIC read: 32

Assay Staph. aureus (Pen-Res) A-9606, sample CC[C@@H](O)[C@H]1C(=O)N2C(C(=O)O)=C(C)S[C@H]12 (relative stereo) , MIC read: 32

Assay Staph. aureus (Pen-Res) A-9606, sample CC1=C(C(=O)O)N2C(=O)[C@@H](CO)[C@H]2S1 (relative stereo) , MIC read: 63

Assay Staph. aureus (Pen-Res) A-9606, sample CC1(C)OCC(C(N)C2=C(C(=O)O)N3C(=O)CC3S2)O1 (centres unmarked) , MIC read: 16

Assay Staph. aureus (Pen-Res) A-9606, sample C[C@@H](O)[C@H]1C(=O)N2C(C(=O)O)=C(COCCN)S[C@H]12 (relative stereo) , MIC read: 0.25

Assay Staph. aureus (Pen-Res) A-9606, sample N[C@H]1C[C@@H](C2=C(C(=O)O)N3C(=O)C[C@H]3S2)C1 , MIC read: 16

* * *

System: Staph. aureus A-9537 and 50% serum
Experiment: MIC, tube dilution, Staph. aureus A9537 + 50% serum
Format: cell-based, Staphylococcus aureus
Conditions: Staphylococcus aureus, overnight 37° C., read-out: Minimum Inhibitory Concentration (M.I.C.)
Description: Representative compounds of the present invention were subjected to in vitro antibiotic screening against a variety of microorganisms.
PROPERTY_LABEL: MIC (µg/mL)
The reply should be a number in µg/mL, with the unit left off.

Entry under test: NCCCC1=C(C(=O)O)N2C(=O)CC2S1 (centres unmarked) [Example 22, Sodium 2-Aminopropylpenem-3-carboxylate] . Its MIC was 63

Entry under test: N[C@H]1C[C@H](C2=C(C(=O)O)N3C(=O)C[C@H]3S2)C1 [Example 75] . Its MIC was 0.5

Entry under test: N#CCCC(N)C1=C(C(=O)O)N2C(=O)C[C@H]2S1 (some centres unmarked) [Example 83] . Its MIC was 8

Entry under test: NCC1=C(C(=O)O)N2C(=O)CC2S1 (centres unmarked) [Example 16, 2-Aminomethylpenem-3-carboxylic Acid] . Its MIC was 32

Entry under test: CCC1=C(C(=O)O)N2C(=O)C[C@H]2S1 [Preparation 10, 2-Ethylpenem-3-carboxylic Acid] . Its MIC was 16

Entry under test: NCC1CC1C1=C(C(=O)O)N2C(=O)CC2S1 (centres unmarked) [Example 79] . Its MIC was 0.25

* * *

system: Ser. marcescens A-20019
Please respond with reported MIC for every item in the list.
The reply should be a number in µg/mL, with the unit left off.

Entry under test: CCCC(N)C1=C(C(=O)O)N2C(=O)CC2S1 (centres unmarked) . Its MIC was 16

Entry under test: NCc1ccc(C2=C(C(=O)O)N3C(=O)CC3S2)cc1 (centres unmarked) . Its MIC was 16

Entry under test: NCCCCCC1=C(C(=O)O)N2C(=O)C[C@H]2S1 . Its MIC was 2

Entry under test: Cn1cc(C2=C(C(=O)O)N3C(=O)CC3S2)cn1 (centres unmarked) . Its MIC was 63
